B1: HDV Ribozyme (parent)
chain: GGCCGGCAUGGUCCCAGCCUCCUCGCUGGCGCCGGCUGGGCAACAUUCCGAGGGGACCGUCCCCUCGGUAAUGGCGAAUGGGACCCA

- Variants of: B1
- protocol_summary: self-cleavage, relative activity (ratio to wild type); higher = more cleavage; co-transcriptional
# label = yes if self-cleavage >= 0.2 else no

chain_sequence | class_name
GGCCGGCAUGGCCCCAGCCUCCUCCCUGGCGCCGGCUGGGCAACAUUCCGAGGGGACCGUCCCCUCGGUAAUGGCGAAUGGGACCCA | no
GGCCGGCAUGGUCCCAGCCUCUUCGCUGGCGCCGGCUGGGCAACAUUCCGAGGGGACCGUCCCGUCGGUAAUGGCGAAUGGGACCCA | yes
GGCCGGCAUGGUCCCAGCCUCCUCGCUGGCGCCGGCUGGGCAACAUUCCGAGGGGACCGUCCCCUCUGUAAUGGCGACUGGGACCCA | yes
GGCCGGCAUGGUCCCAGGCUCCUCGCUGGAGCCGGCUGGGCAACAUUCCGAGGGGACCGUCCCCUCGGUAAUGGCGAAUGGGACCCA | no
GGCCGGCAUGGUCCCAGCCUCCUCGCUGGCGCCGGCUGGGCCACAUUCCGAGGGGACCGUCCCCGCGGUAAUGGCGAAUGGGACCCA | yes
GGGCGGCAUGGUCCCAGCCCCCUCGCUGGCGCCGGCUGGGCAACAUUCCGAGGGGACCGUCCCCUCGGUAAUGGCGAAUGGGACCCA | no
GGCCGGCAUGGUCCCAGCCGCCUCGCUGGCGCCGGCUGGGCAACAUUCCGAGGGGACGGUCCCCUCGGUAAUGGCGAAUGGGACCCA | yes
GGCCGGCAUGGUCCCAGCCUCCUCGCUGGCGCCGGCUGGGCAACAUUCCGAGGGGACCGUCCCCUCGGUAAUUGCGAAUGGAACCCA | no
GGCCGGCUUGGUCCCAGCCUCCUCGCUGGCGCCGGCUGGGCAACAUUCCGAGGGGACCGUCCCGUCGGUAAUGGCGAAUGGGACCCA | yes
GGCCGGCAUGGUCCCAGCCUCCUCGCUGGCGCCGGCUGGGCAGCAUCCCGAGGGGACCGUCCCCUCGGUAAUGGCGAAUGGGACCCA | yes
GGCCGGCAUGGUCCCAGCCUCCUCGCUGGCGCCGGCUGGGCAACAUUCCGAGGGGACGGUCCCCUCGGCAAUGGCGAAUGGGACCCA | yes
GGCCGGCAUGGUCCCAGCCUCCUCGCUGGCGCCGGCUGGGCAACAUUCCGAGUGGACCGUCCCCUCGGUAAUGGCGAAUGGGACGCA | yes
GGCCGGCAUGGUCCCAGCCGCCUCGCUGGCGCCGGCUGGGCAACAUUCCGAGGGGACCGUCCCCUCGGUAAUGCCGAAUGGGACCCA | no
GGCCGGCAUGGUCCCAGCCUCCUCGCUGGCGCCGGCUGGGCAUCAUUCCGAGGGGACCGUCCCCUCGGUAAUGGCGAAUGGGCCCCA | no
GGCCGGCAUGGUCCCAGCCUCCUCGCUGGCGCCAGCUGGGCAACAUUCCGAGGGGACCUUCCCCUCGGUAAUGGCGAAUGGGACCCA | yes
GGCCGUCAUGGUCCCAGCCUCCUCGCUGGCGCCGGCUGGGCAACAUUCCGAGGGGACCGUCCCCUGGGUAAUGGCGAAUGGGACCCA | yes
GGCCGGCAUGGUCCCAGCCUCCGCGCUGGCCCCGGCUGGGCAACAUUCCGAGGGGACCGUCCCCUCGGUAAUGGCGAAUGGGACCCA | no
GGCCGGCAUGGUCCCAGCCUCCUCGCUGGCGCCGGCUGGGCAACUUUCCGAGGGGACCGUCCCCUCGGUAAUGGCGAAUGGGACGCA | yes
GGCCGGCAUGGUCCCAGCCUCCUCACUGGCGCCGGCUGAGCAACAUUCCGAGGGGACCGUCCCCUCGGUAAUGGCGAAUGGGACCCA | no
GGCCGGCAUGGUCCCAGCCUCCUGGCUGGCGCCGGCUGGGCAACAUUCCGAGGGGACCGUCCGCUCGGUAAUGGCGAAUGGGACCCA | yes
GGCCGGCAGGGUCCCAGCCUUCUCGCUGGCGCCGGCUGGGCAACAUUCCGAGGGGACCGUCCCCUCGGUAAUGGCGAAUGGGACCCA | yes
GACCGGCAUGGUCCCAGCCUCCUCGCUGGCGCCGGCUGGGCAACAUUCCGAGGGGACCGUCCCCUCGGUAAAGGCGAAUGGGACCCA | no

meta.source: the RNAGym collection of RNA variant scans (doi:10.7554/elife.80360)
